Entries and their pKi
Target: MalA wild-type (Saccharolobus solfataricus, UniProt D0KQM8)
Sequence (D0KQM8 1-700): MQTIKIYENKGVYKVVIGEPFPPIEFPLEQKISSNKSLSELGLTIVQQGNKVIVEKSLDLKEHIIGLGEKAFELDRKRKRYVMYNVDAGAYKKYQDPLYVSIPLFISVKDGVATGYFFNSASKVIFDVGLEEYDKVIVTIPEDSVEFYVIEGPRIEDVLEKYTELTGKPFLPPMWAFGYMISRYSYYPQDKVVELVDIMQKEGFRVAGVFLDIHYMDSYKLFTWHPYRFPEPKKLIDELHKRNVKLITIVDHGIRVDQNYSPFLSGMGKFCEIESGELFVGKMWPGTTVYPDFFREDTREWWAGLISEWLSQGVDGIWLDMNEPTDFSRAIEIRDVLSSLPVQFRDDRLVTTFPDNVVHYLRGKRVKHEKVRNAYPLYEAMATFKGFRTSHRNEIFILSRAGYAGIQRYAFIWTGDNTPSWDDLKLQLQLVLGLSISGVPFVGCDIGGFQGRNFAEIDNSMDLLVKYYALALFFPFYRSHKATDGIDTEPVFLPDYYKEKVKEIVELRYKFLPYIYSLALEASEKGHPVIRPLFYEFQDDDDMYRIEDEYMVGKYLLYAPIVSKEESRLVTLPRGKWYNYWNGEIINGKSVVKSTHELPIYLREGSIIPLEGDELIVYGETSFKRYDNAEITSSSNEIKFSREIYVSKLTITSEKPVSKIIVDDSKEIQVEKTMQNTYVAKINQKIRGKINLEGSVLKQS
In textbook form, pKi equals minus log to base ten of the concentration in mol/L.

Query: Bench note: what pKi did OC[C@H]1NC[C@H](O)[C@@H](O)[C@@H]1O show?
Response: 8.05

Query: // repeat for CCCCN1C[C@H](O)[C@@H](O)[C@H](O)[C@H]1CO and report
Response: 6.89

Query: Same thing, different molecule: C[C@H]1O[C@H](O[C@H]2[C@H](O)[C@@H](O)[C@@H](O[C@H]3[C@H](O)[C@@H](O)C(O)O[C@@H]3CO)O[C@@H]2CO)[C@H](O)[C@@H](O)[C@@H]1N[C@H]1C=C(CO)[C@@H](O)[C@H](O)[C@H]1O (stereo partly drawn)
Response: 6.01
